- Tested On: T1, VEGFR-3-Fc (UniProt P35916 25-328)
- T1 construct: domain: first three Ig domains; conditioned supernatant of 293T cells; also called VEGFR-3-Fc fusion protein; not shown: Fc fragment of the pIg vector
- T1 sequence (looked up): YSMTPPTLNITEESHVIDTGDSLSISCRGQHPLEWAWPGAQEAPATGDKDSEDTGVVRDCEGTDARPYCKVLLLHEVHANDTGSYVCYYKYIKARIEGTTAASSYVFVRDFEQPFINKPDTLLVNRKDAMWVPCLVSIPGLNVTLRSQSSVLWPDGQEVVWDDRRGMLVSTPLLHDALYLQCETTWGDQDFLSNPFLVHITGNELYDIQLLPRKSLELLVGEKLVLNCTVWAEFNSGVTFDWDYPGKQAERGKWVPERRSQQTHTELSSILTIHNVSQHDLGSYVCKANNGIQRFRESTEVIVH
- Assay Protocol: receptor-Fc IP
Reported Property: binding result

>>> measured_result("22-7 (ligand) AHYNTEILKSIDNEWRKTQCMPREVCIDVGKEFGVATNTFFKPPCVSVYRCGGCCNSEGLQCVPTEESNITMQIMRIKPHQGQHIGEMSFANHTSCRCMSKLD")
"no binding"
>>> measured_result("42-12 (ligand) AHYNTEILKFMDVYQRSYCHPREVCIDVGKEFGVATNTFFKPPCVSVYRCGGCCNSEGLQCMNTSTSYLSKTLFEITVPLSQGPKPVTISFLQHNKCECRPKKD")
"no binding"
>>> measured_result("23-8 (ligand) AHYNTEILKSIDNEWRKTQCMPREVCIDVGKEYPDEIEYIFKPPCVSVYRCGGCCNSEGLQCMNTSTSYLSKTLFEIKPHQGQHIGEMSFANHTSCRCMSKLD")
"no binding"
